Overview of recorded MIC for various molecules
System: S. pyogenes
Assay: MIC determination, initial screen, S. pyogenes
Format: cell-based
Details: Streptococcus pyogenes, ATCC14289; Table 1; ATCC 14289 (initial screen); 24 h, A595

Check out these entries, answers already filled in.
COc1cc2cnc(N3CCC(Nc4ccc(C(=O)OC(C)(C)C)cc4)CC3)nc2cc1OC = > 20 µM
COc1cc2nc(N3CCC(Nc4ccc(C(=O)OC(C)(C)C)cc4[N+](=O)[O-])CC3)nc(N)c2cc1OC = 50 to 100 µM

Now examine the next entry.
Ask: If you can, please state the reported MIC value of `COC(=O)c1ncc(NC2CCN(c3nc(N)c4cc(OC)c(OC)cc4n3)CC2)nc1N` .
Reply: > 50 µM
